Hey, just so you know, these numbers are from patent US12319655B2.

Please go through the items and note down their IC50.
# Tested on: H2405 cells
# measurementProtocol: H2405 Cell Proliferation Assay (1)
# Type: cell-based
# conditionContext: Homo sapiens, NCI-H2405

response.value for CNC(=O)c1cc(-c2cc(-c3cc(NC(=O)c4ccnc(C(C)(C)C#N)c4)ccc3C#N)ccn2)ccn1 (field: IC50) = 0.1 to 0.5 µM

response.value for COC(=O)Nc1cc(-c2cnnc(-c3cc(NC(=O)c4ccnc(C(C)(C)C#N)c4)c(F)cc3C)c2)ccn1 (field: IC50) = 0.1 to 0.5 µM

response.value for CNC(=O)c1cc(-c2cnnc(-c3cc(NC(=O)c4ccnc(C(F)(F)F)c4)cnc3C)c2)ccn1 (field: IC50) = 1 to 10 µM

response.value for CNc1cc(-c2cccc(-c3cc(NC(=O)c4ccnc(C(C)(C)C#N)c4)cnc3C)c2)ncn1 (field: IC50) = 1 to 10 µM

response.value for Cc1ncc(NC(=O)c2ccnc(C(C)(C)F)c2)cc1-c1cccc(-c2cc(NC(=O)C3CC3)ncn2)c1 (field: IC50) = 0.1 to 0.5 µM

response.value for Cc1ncc(NC(=O)c2ccnc(C(C)(C)C#N)c2)cc1-c1ccnc(-c2ccnc(NC(=O)C3CC3)c2)c1 (field: IC50) = 0.1 to 0.5 µM

response.value for Cc1ccc(NC(=O)c2ccnc(C(C)(C)F)c2)cc1-c1cncc(-c2cc(N)ncn2)c1 (field: IC50) = 0.1 to 0.5 µM
